Every entry's value here was drawn from PubChem BioAssay (NCI).

Listed here: items and their measured TGI.
# System: NCI-H226 lung
# protocol.text: NCI tumour cell line growth inhibition, 48 h
*1 amine or outer side, *2 acyl side, *3 side chain or, on linkers, in order; H or OH if unused. Where a SMILES comes first, the peptide text is derived from it. [ ]: non-standard residue; d: D form. ξ: configuration not given here. X22 = O=C(C(CC(O)CO)O[*:1])[*:2]; Ile(3ξ) = CCC(C)[C@H](N)C(=O)O; NMeV = CN[C@H](C(=O)O)C(C)C; Hiv = CC(C)[C@H](O)C(=O)O; NMeA = CN[C@@H](C)C(=O)O; βAla = NCCC(=O)O
observation.type: TGI

- N#CCC1(c2ccc(Cl)cc2)NC(=O)c2ccccc21 (stereo unspecified): > 100 µM
- Cc1ccc2nc3c(C)cc(=O)cc-3sc2c1: > 100 µM
- CC(=O)NC(CCCNC(=O)OCc1ccccc1)C(=O)O (stereo unspecified): > 100 µM
- COc1ccc(/C=C2\CCC(Cc3ccccc3)(CN(C)C)C2=O)cc1 (stereo unspecified): > 96.3 µM
- CCC(C)[C@@H]1NC(=O)[C@@H]2CCCN2C(=O)C(CC(O)CO)OC(=O)CCNC(=O)[C@H](C)N(C)C(=O)[C@H](C(C)C)N(C)C1=O (stereo partly specified) (cyclo([Ile(3ξ)][NMeV][NMeA][βAla][X22]P)): > 100 µM
- c1ccc2c3nnc(c2c1)SCCCSc1nnc(c2ccccc12)SCCCS3: 56.6 µM
- CC(C)[C@H](C(=O)O[C@@H]1/C=C/C(=O)O[C@@H](C)CCC/C=C/[C@@H]2C[C@H](O)C[C@H]21)N(C)C: 44.2 µM
- O=C1CC[C@@H](NC(=O)Cc2ccccc2)C(=O)N1: > 100 µM
- CCCCCCSc1nc(COC(=O)NC)c(COC(=O)NC)n1C: > 100 µM
- Cc1[nH]n(-c2ccccc2)c(=O)c1C(N(CCc1ccccc1)C1=NCC(C)S1)(C(F)(F)F)C(F)(F)F (stereo unspecified): 29.5 µM
- COc1cc(Cn2c(SCC(=O)Nc3ccc(Cl)cc3)nc3ccccc3c2=O)cc(OC)c1OC: 26.2 µM
- O=C(O)c1cn(C2CC2)c2cc(N3CCN(Cc4ccc5ccccc5c4O)CC3)c(F)cc2c1=O: > 100 µM
- COC(=O)NC(=O)c1cn(C2CCCCC2)c(=O)[nH]c1=O: > 100 µM
- O=C(c1ccccc1)N1CCC(Nc2nccs2)O1 (stereo unspecified): > 10 µM
- CC1OC(OCC2OC(Oc3ccc(C4CC(=O)c5c(O)cc(O)cc5O4)cc3O)C(O)C(O)C2O)C(O)C(O)C1O (stereo unspecified): > 100 µM
- CC(C)[C@@H]1OC(=O)[C@@H](C)NC(=O)[C@@H]2CCCN2C1=O (cyclo([Hiv]-Pro-[dA])): > 100 µM
- CC/C(=N/N=C(N)N)c1ccc(NC(=O)Nc2ccc(/C(CC)=N/N=C(N)N)cc2)cc1: 39.8 µM
- COc1cc2c(cc1O)C1CC(CC3CCCCN31)OC(=O)/C=C\c1ccc(O)c-2c1 (stereo unspecified): > 100 µM
- CSc1nc2nc(C(O)C(O)C(O)CO)cnc2c(=O)[nH]1 (stereo unspecified): > 100 µM
- COc1ccc2c(c1)C(=O)c1c-2c(N2CCN(C(=O)CCNCCNCCO)CC2)nc2ccccc12: 48.1 µM
- O=C1NC(=O)C(c2c[nH]c3ccccc23)=C1c1ccccc1: > 25 µM
